assay: Clearance in C57BL/6 mouse at 1 mg/kg, iv measured upto 24 hrs by LC/MS-MS analysis; type: ADME, organism-based; details: in vivo
measured-endpoint: clearance (mL/min/kg)
Report the value in mL/min/kg with no unit label.

Record "O=C(O)[C@H](c1cc(F)ccc1[C@@H]1CCC2(CC2)CO1)N1CC[C@@H](OCCCCc2ccc3c(n2)NCCC3)C1" . Reported clearance: 18

----------
test: Volume of distribution at steady state in C57BL/6 mouse at 1 mg/kg, iv measured upto 24 hrs by LC/MS-MS analysis; type: ADME, organism-based; conditions: in vivo, read-out: Vdss
measured-endpoint: Vd (L/kg)
Report the value in L/kg with no unit label.

Record "O=C(O)[C@H](c1cc(F)ccc1[C@@H]1CCC2(CC2)CO1)N1CC[C@@H](OCCCCc2ccc3c(n2)NCCC3)C1" . Reported Vd: 2.07

----------
test: Octanol/water partition coefficient, logD of the compound; type: physicochemical
measured-endpoint: logD
# respond with the number and nothing more

[
  {
    "compound": "O=C(O)[C@H](c1ccccc1C1CCCOC1)N1CC[C@@H](OCCCCc2ccc3c(n2)NCCC3)C1 (some centres undefined)",
    "logD": 1.2
  },
  {
    "compound": "CC1(C)CC[C@@H](c2ccccc2[C@@H](C(=O)O)N2CC[C@@H](OCCCCc3ccc4c(n3)NCCC4)C2)OC1",
    "logD": 1.5
  },
  {
    "compound": "O=C(O)CN1CCC(C(=O)NCCCc2ccc3c(n2)NCCC3)CC1",
    "logD": -0.5
  },
  {
    "compound": "O=C(NCCCc1ccc2c(n1)NCCC2)[C@@H]1CCN([C@H](C(=O)O)c2ccccc2)C1",
    "logD": 0.4
  }
]

We next turn to a different compound, shown below.
Record "O=C(NCCCc1ccc2c(n1)NCCC2)C1CCN([C@H](C(=O)O)c2ccccc2)CC1" . Reported logD: 0.2

----------
Reported values of logD for individual entries
experiment: Octanol/water partition coefficient, logD of the compound; assay type: physicochemical
# respond with the number and nothing more

[
  {
    "query-smiles": "CC1(C)CCO[C@H](c2ccccc2[C@@H](C(=O)O)N2CC[C@@H](OCCCCc3ccc4c(n3)NCCC4)C2)C1",
    "logD": 2.3
  }
]

Record "O=C(O)[C@H](c1ccccc1C1CC1)N1CC[C@@H](OCCCCc2ccc3c(n2)NCCC3)C1" . Reported logD: 1.4

Record "O=C(O)[C@H](c1ccccc1C1CC1)N1C[C@@H](F)[C@@H](OCCCCc2ccc3c(n2)NCCC3)C1" . Reported logD: 1.4

Record "O=C(O)[C@H](c1cc(F)ccc1[C@@H]1CCOC1)N1CC[C@@H](OCCCCc2ccc3c(n2)NCCC3)C1" . Reported logD: 1
